# Test system: IMR-32 cells
# assay procedure: Growth of IMR-32 cells
# Type: cell-based

{"compound": "CCCCC/C=C\\C\\C=C/C=C/C=C/[C@@H](SC[C@H](N)C(=O)NCC(=O)O)[C@@H](O)CCCC(=O)O", "growth of IMR-32 cells": "growth inhibitory action"}
{"compound": "CCCCC[C@H](O)/C=C/[C@H]1[C@H](O)CC(=O)[C@@H]1CCCCCCC(=O)O", "growth of IMR-32 cells": "growth inhibitory action"}
{"compound": "CCCCC[C@H](O)/C=C/[C@H]1[C@H](O)CC(=O)[C@@H]1C/C=C\\CCCC(=O)O", "growth of IMR-32 cells": "growth inhibitory action"}
